# method.summary: Cytotoxicity against rat PC12 cells assessed as cell viability at 100 uM after 24 hrs by MTT assay
# Type: cell-based, PC-12
# condition.notes: read-out: Activity
quantity.measured: viability at 24 h, 100 µM (%)
Just the number in %, nothing appended.

Task: Using the record for `O=S(=O)(/C=C/c1ccc(O)c(O)c1)CCCCCCCO` , report its viability at 24 h, 100 µM.
Result: 91.8

Task: // viability at 24 h, 100 µM lookup, key: `O=S(=O)(/C=C/c1ccc(O)c(O)c1)CCC1CCCCC1`
Result: 94.9

Task: I would be grateful if you could share the reported viability at 24 h, 100 µM for `CCCCCCCCCCCCS(=O)(=O)/C=C/c1ccc(O)c(O)c1` .
Result: 28.2

Task: Tell me the measured viability at 24 h, 100 µM of O=S(=O)(/C=C/c1ccc(O)c(O)c1)CC1CCCN1 (stereo unspecified) , please.
Result: 55.9

Task: Give its viability at 24 h, 100 µM value. Item: O=S(=O)(/C=C/c1ccc(O)c(O)c1)CC1CCCCO1 (stereo unspecified)
Result: 88.3

Task: If you can, please state the reported viability at 24 h, 100 µM value of O=S(=O)(/C=C/c1ccc(O)c(O)c1)CC1CCCO1 (stereo unspecified) .
Result: 98

Entry source: ChEMBL document CHEMBL4346690
